The reader will find reported inhibition values listed item by item below.
target: Tumor necrosis factor (Mus musculus); assay: Inhibition of TNFalpha in LPS-stimulated mouse RAW264.7 cells at 10 uM after 2 hrs treated after 14 hrs of LPS challenge by FACS analysis; type: cell-based
Your answer should be a plain number; it is taken to be in %.

Which value of inhibition has been reported for O=c1cc(-c2ccccc2)oc2cc(O)c(O)c(O)c12 in the records? 71.3

I'd like to know its inhibition. The compound in question is NC(=O)c1cc(-c2csc(C3COc4ccccc4O3)n2)ccc1OCc1ccccc1 (stereo unspecified) 52.6

Dear colleague, I am looking for the recorded inhibition of the following compound: O=C1NC(=O)N(c2ccc3c(c2)OCO3)C(=O)/C1=C\c1cn(Cc2ccccc2Cl)c2ccccc12 54.6

---
# input compound: O=C1NC(=O)N(c2ccccc2)C(=O)/C1=C\c1ccccc1OCc1ccccc1Cl ; wanted: its inhibition 47.9

Form field: reported inhibition of c1ccc(-n2ncc3c(NCCN4CCCCC4)ncnc32)cc1 45.8

Find the recorded inhibition belonging to Cc1cccc(N2C(=O)NC(=O)/C(=C/c3ccc(-c4ccc(C(=O)O)c(Cl)c4)o3)C2=O)c1 and report it. 64
